Target: human AT1 receptor (Homo sapiens, UniProt P30556)
Construct: expressed in transfected cells; membrane fraction
Sequence (P30556 1-359): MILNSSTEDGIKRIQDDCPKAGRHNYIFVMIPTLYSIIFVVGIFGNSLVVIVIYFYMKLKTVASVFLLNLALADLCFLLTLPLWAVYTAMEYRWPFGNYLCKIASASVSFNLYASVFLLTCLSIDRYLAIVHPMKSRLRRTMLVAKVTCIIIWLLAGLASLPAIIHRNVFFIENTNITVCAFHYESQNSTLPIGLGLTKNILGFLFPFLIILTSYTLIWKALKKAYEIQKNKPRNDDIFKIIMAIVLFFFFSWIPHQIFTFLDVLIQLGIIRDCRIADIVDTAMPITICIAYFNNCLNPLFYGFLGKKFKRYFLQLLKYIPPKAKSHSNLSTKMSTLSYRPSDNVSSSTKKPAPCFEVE
Assay: AT1 receptor antagonistic activity: [125I]-angiotensin II binding assay on human AT1 receptor-expressing CHO-K1 cellular membrane fraction
Details: 22.5 pM [125I]-angiotensin II, 1 hr room temperature
Please use class 1 for IC50 under 2 nM and class 0 for everything else, ties included.

Q. IC50 strictly < 2 nM for this compound? CCCc1c(Cc2ccc(-c3ccccc3-c3noc(=O)[nH]3)cc2)c(=O)n(C2C=CCCC2)c2nc(C)nn12 (stereo not shown)
A. class 0

Q. IC50 strictly < 2 nM for this compound? `CCCc1c(Cc2ccc(-c3ccccc3-c3noc(=O)[nH]3)cc2)c(=O)n([C@H]2CC[C@@H](Oc3ccon3)CC2)c2ncnn12`
A. class 1

Q. IC50 strictly < 2 nM for this compound? CCCc1c(Cc2ccc(-c3ccccc3-c3noc(=O)[nH]3)cc2F)c(=O)n([C@H]2CC[C@H](OC(C)C3(O)CCC3)CC2)c2ncnn12 (stereo partly shown)
A. class 0

Q. IC50 strictly < 2 nM for this compound? CCCc1c(Cc2ccc(-c3ccccc3-c3noc(=O)[nH]3)cc2)c(=O)n(C2CCC(OC)CC2)c2ncnn12 (stereo not shown)
A. class 0

Q. IC50 strictly < 2 nM for this compound? `CCCc1c(Cc2ccc(-c3ccccc3-c3noc(=O)[nH]3)cc2)c(=O)n([C@H]2CC[C@H](Oc3ccc(C(C)(C)O)cc3)CC2)c2ncnn12`
A. class 1

Q. IC50 strictly < 2 nM for this compound? `CCCc1c(Cc2ccc(-c3ccccc3-c3noc(=O)[nH]3)cc2)c(=O)n([C@H]2CC[C@@]3(CC2)CC(C)=NO3)c2ncnn12`
A. class 0

Q. IC50 strictly < 2 nM for this compound? CCCc1c(Cc2ccc(-c3ccccc3-c3noc(=O)[nH]3)cc2)c(=O)n([C@H]2CC[C@H](OCC(O)C(F)(F)F)CC2)c2ccnn12 (relative stereo)
A. class 1

Q. IC50 strictly < 2 nM for this compound? `CCCc1c(Cc2ccc(-c3ccccc3-c3noc(=O)[nH]3)cc2)c(=O)n([C@H]2CC[C@H](Oc3ccc(C(C)=O)cc3)CC2)c2ncnn12`
A. class 0

Q. IC50 strictly < 2 nM for this compound? CCCc1c(Cc2ccc(-c3ccccc3-c3noc(=O)[nH]3)cc2)c(=O)n(C2CCC3(CC2)OCC(CO)O3)c2ncnn12 (stereo not shown)
A. class 0

Q. IC50 strictly < 2 nM for this compound? `CCCc1c(Cc2ccc(-c3ccccc3-c3noc(=O)[nH]3)cc2F)c(=O)n([C@H]2C[C@H](OCC(C)(C)O)C2)c2ncnn12`
A. class 0

Q. IC50 strictly < 2 nM for this compound? CCCc1c(Cc2ccc(-c3ccccc3-c3noc(=O)[nH]3)cc2)c(=O)n(C2CCC(=NOC)CC2)c2ncnn12 (stereo not shown)
A. class 1

Q. IC50 strictly < 2 nM for this compound? `CCCCc1c(Cc2ccc(-c3ccccc3-c3noc(=O)[nH]3)cc2)c(=O)n(C2CCOCC2)c2ncnn12`
A. class 1

Q. IC50 strictly < 2 nM for this compound? `CCCc1c(Cc2ccc(-c3ccccc3-c3noc(=O)[nH]3)cc2)c(=O)n([C@H]2C[C@H](OCC(O)(CC)CC)C2)c2ncnn12`
A. class 0
